# test description: Selectivity ratio of Ki for mu opioid receptor in mouse whole brain membranes without cerebellum to Ki for kappa opioid receptor in guinea pig cerebellum membranes
# Type: cell membranes
Think of 5 as a floor: if Ratio Ki stands on it or above, it is Yes; beneath it, No.

CN(C(=O)/C=C/c1ccoc1)[C@@H]1CC[C@@]2(O)[C@H]3Cc4ccccc4[C@@]2(CCN3CC2CC2)C1 :: Yes
CN(C(=O)/C=C/c1ccoc1)[C@H]1CC[C@@]2(O)[C@H]3CC4=C(C[C@H](O)CC4)[C@@]2(CCN3CC2CC2)C1 :: No
CN(C(=O)/C=C/c1ccoc1)[C@H]1CC[C@@]2(O)[C@H]3CC4=C(CCCC4)[C@@]2(CCN3CC2CC2)C1 :: Yes
CN(C(=O)/C=C/c1ccoc1)[C@H]1CC[C@@]2(O)[C@H]3Cc4ccccc4[C@@]2(CCN3CC2CC2)C1 :: Yes
CN(C(=O)/C=C/c1ccoc1)[C@H]1CC[C@H]2[C@H]3CC4=C(CCCC4)[C@@]2(CCN3CC2CC2)C1 :: No
CN(C(=O)/C=C/c1ccoc1)[C@H]1CC[C@@]2(O)[C@H]3CC4=C(C[C@@H](O)CC4)[C@@]2(CCN3CC2CC2)C1 :: Yes
CN(C(=O)/C=C/c1ccoc1)[C@H]1CC[C@@]2(O)[C@H]3Cc4ccc(O)cc4[C@@]2(CCN3CC2CC2)C1 :: No

----------
# target under test: Mu-type opioid receptor (Mus musculus)
# Sequence (P42866 whole entry): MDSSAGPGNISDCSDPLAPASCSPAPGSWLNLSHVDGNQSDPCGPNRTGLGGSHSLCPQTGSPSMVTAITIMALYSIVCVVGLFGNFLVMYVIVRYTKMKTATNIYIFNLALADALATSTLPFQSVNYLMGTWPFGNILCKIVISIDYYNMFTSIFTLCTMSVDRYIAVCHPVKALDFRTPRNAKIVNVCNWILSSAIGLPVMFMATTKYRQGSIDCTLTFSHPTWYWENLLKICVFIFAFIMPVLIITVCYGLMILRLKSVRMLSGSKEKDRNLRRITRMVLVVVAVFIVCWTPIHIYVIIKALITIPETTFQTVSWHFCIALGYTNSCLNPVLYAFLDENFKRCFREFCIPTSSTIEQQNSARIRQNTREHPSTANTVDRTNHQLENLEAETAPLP
# test description: Displacement of [3H]DAMGO from mu opioid receptor in mouse whole brain membranes without cerebellum
Lab note: cut-off is 50 nM. Strictly less in Ki is Met. Exactly 50 nM or more is Not met.

CN(C(=O)/C=C/c1ccoc1)[C@@H]1CC[C@@]2(O)[C@H]3CC4=C(C[C@@H](O)CC4)[C@@]2(CCN3CC2CC2)C1 :: Met
CN(C(=O)/C=C/c1ccoc1)[C@H]1CC[C@H]2[C@H]3CC4=C(CCCC4)[C@@]2(CCN3CC2CC2)C1 :: Met
CN(C(=O)/C=C/c1ccoc1)[C@@H]1CC[C@@]2(O)[C@H]3CC4=C(C[C@H](O)CC4)[C@@]2(CCN3CC2CC2)C1 :: Not met
CN(C(=O)/C=C/c1ccoc1)[C@H]1CC[C@@]2(O)[C@H]3Cc4cccc5c4[C@@]2(CCN3CC2CC2)[C@H]1O5 :: Met

----------
# target under test: Delta-type opioid receptor (Mus musculus)
# Sequence (P32300 whole entry): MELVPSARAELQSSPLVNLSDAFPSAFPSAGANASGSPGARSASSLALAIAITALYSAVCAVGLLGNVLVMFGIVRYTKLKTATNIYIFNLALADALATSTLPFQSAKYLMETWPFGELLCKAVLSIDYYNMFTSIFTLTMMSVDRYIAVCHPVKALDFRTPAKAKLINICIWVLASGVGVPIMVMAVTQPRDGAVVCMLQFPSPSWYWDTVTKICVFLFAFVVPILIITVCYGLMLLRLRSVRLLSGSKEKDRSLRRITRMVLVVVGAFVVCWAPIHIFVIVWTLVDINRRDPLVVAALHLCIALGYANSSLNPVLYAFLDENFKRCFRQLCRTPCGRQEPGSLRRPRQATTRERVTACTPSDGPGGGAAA
# test description: Displacement of [3H]DPDPE from delta opioid receptor in mouse whole brain membranes without cerebellum
observed property: Ki (nM)

CN(C(=O)/C=C/c1ccoc1)[C@H]1CC[C@@]2(O)[C@H]3CC4=C(CC(=O)CC4)[C@@]2(CCN3CC2CC2)C1 :: 44.5
CN(C(=O)/C=C/c1ccoc1)[C@H]1CC[C@H]2[C@H]3CC4=C(CCCC4)[C@@]2(CCN3CC2CC2)C1 :: 32.9
CN(C(=O)/C=C/c1ccoc1)[C@@H]1CC[C@@]2(O)[C@H]3CC4=C(C[C@@H](O)CC4)[C@@]2(CCN3CC2CC2)C1 :: 233
CN(C(=O)/C=C/c1ccoc1)[C@H]1CC[C@@]2(O)[C@H]3CC4=C(CCCC4)[C@@]2(CCN3CC2CC2)C1 :: 26.4
CN(C(=O)/C=C/c1ccoc1)[C@@H]1CC[C@@]2(O)[C@H]3CC4=C(CC(=O)CC4)[C@@]2(CCN3CC2CC2)C1 :: 74.2
CN(C(=O)/C=C/c1ccoc1)[C@H]1CC[C@@]2(O)[C@H]3Cc4ccc(O)cc4[C@@]2(CCN3CC2CC2)C1 :: 0.623
CN(C(=O)/C=C/c1ccoc1)[C@@H]1CC[C@@]2(O)[C@H]3Cc4ccccc4[C@@]2(CCN3CC2CC2)C1 :: 32.4
CN(C(=O)/C=C/c1ccoc1)[C@H]1CC[C@@]2(O)[C@H]3Cc4ccccc4[C@@]2(CCN3CC2CC2)C1 :: 5.65
CN(C(=O)/C=C/c1ccoc1)[C@H]1CC[C@@]2(O)[C@H]3Cc4cccc5c4[C@@]2(CCN3CC2CC2)[C@H]1O5 :: 49.5
CN(C(=O)/C=C/c1ccoc1)[C@H]1CC[C@@]2(O)[C@H]3CC4=C(C[C@H](O)CC4)[C@@]2(CCN3CC2CC2)C1 :: 8.45
CN(C(=O)/C=C/c1ccoc1)[C@@H]1CC[C@@]2(O)[C@H]3CC4=C(C[C@H](O)CC4)[C@@]2(CCN3CC2CC2)C1 :: 47.5
CN(C(=O)/C=C/c1ccoc1)[C@H]1CC[C@@]2(O)[C@H]3CC4=C(C[C@@H](O)CC4)[C@@]2(CCN3CC2CC2)C1 :: 8.66

----------
# test description: Selectivity ratio of Ki for mu opioid receptor in mouse whole brain membranes without cerebellum to Ki for kappa opioid receptor in guinea pig cerebellum membranes
# Format: cell membranes
Each entry below carries its recorded Ratio Ki.
observed property: Ratio Ki

CN(C(=O)/C=C/c1ccoc1)[C@@H]1CC[C@@]2(O)[C@H]3CC4=C(C[C@H](O)CC4)[C@@]2(CCN3CC2CC2)C1 :: 79
CN(C(=O)/C=C/c1ccoc1)[C@H]1CC[C@@]2(O)[C@H]3CC4=C(CC(=O)CC4)[C@@]2(CCN3CC2CC2)C1 :: 12
CN(C(=O)/C=C/c1ccoc1)[C@@H]1CC[C@@]2(O)[C@H]3CC4=C(C[C@@H](O)CC4)[C@@]2(CCN3CC2CC2)C1 :: 49
CN(C(=O)/C=C/c1ccoc1)[C@@H]1CC[C@@]2(O)[C@H]3CC4=C(CC(=O)CC4)[C@@]2(CCN3CC2CC2)C1 :: 3.5
CN(C(=O)/C=C/c1ccoc1)[C@H]1CC[C@@]2(O)[C@H]3Cc4cccc5c4[C@@]2(CCN3CC2CC2)[C@H]1O5 :: 26

----------
# target under test: Mu-type opioid receptor (Mus musculus)
# test description: Displacement of [3H]DAMGO from mu opioid receptor in mouse whole brain membranes without cerebellum
# Format: cell membranes, Membrane
Each entry below carries its recorded log10 Ki.
observed property: log10 Ki (log10 of the value in nM)

CN(C(=O)/C=C/c1ccoc1)[C@H]1CC[C@@]2(O)[C@H]3Cc4ccc(O)cc4[C@@]2(CCN3CC2CC2)C1 :: -0.49
CN(C(=O)/C=C/c1ccoc1)[C@H]1CC[C@@]2(O)[C@H]3CC4=C(C[C@H](O)CC4)[C@@]2(CCN3CC2CC2)C1 :: 0.72
CN(C(=O)/C=C/c1ccoc1)[C@H]1CC[C@@]2(O)[C@H]3CC4=C(CC(=O)CC4)[C@@]2(CCN3CC2CC2)C1 :: 1.41
CN(C(=O)/C=C/c1ccoc1)[C@@H]1CC[C@@]2(O)[C@H]3Cc4ccccc4[C@@]2(CCN3CC2CC2)C1 :: 1.09
CN(C(=O)/C=C/c1ccoc1)[C@H]1CC[C@@]2(O)[C@H]3Cc4ccccc4[C@@]2(CCN3CC2CC2)C1 :: 0.81
CN(C(=O)/C=C/c1ccoc1)[C@H]1CC[C@@]2(O)[C@H]3CC4=C(C[C@@H](O)CC4)[C@@]2(CCN3CC2CC2)C1 :: 0.74
CN(C(=O)/C=C/c1ccoc1)[C@H]1CC[C@@]2(O)[C@H]3CC4=C(CCCC4)[C@@]2(CCN3CC2CC2)C1 :: 2.17

----------
Each entry below carries its recorded pKi.
# target under test: Kappa-type opioid receptor (Cavia porcellus)
# Sequence (P41144 whole entry): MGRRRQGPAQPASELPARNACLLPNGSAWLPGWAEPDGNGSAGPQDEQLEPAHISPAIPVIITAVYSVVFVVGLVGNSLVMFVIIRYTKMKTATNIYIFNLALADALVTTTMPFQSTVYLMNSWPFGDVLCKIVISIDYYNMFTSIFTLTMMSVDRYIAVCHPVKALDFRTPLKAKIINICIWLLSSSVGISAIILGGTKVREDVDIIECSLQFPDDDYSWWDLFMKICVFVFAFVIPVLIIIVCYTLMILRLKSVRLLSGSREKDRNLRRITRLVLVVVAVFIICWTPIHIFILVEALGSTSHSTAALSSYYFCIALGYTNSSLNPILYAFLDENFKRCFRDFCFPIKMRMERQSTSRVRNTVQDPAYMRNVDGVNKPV
pKi: −log10 of the molar value.
observed property: pKi

CN(C(=O)/C=C/c1ccoc1)[C@@H]1CC[C@@]2(O)[C@H]3Cc4ccccc4[C@@]2(CCN3CC2CC2)C1 :: 9.47
CN(C(=O)/C=C/c1ccoc1)[C@@H]1CC[C@@]2(O)[C@H]3CC4=C(C[C@H](O)CC4)[C@@]2(CCN3CC2CC2)C1 :: 9.13
CN(C(=O)/C=C/c1ccoc1)[C@H]1CC[C@@]2(O)[C@H]3CC4=C(C[C@@H](O)CC4)[C@@]2(CCN3CC2CC2)C1 :: 9.35
CN(C(=O)/C=C/c1ccoc1)[C@@H]1CC[C@@]2(O)[C@H]3CC4=C(CC(=O)CC4)[C@@]2(CCN3CC2CC2)C1 :: 7.84
CN(C(=O)/C=C/c1ccoc1)[C@H]1CC[C@@]2(O)[C@H]3Cc4cccc5c4[C@@]2(CCN3CC2CC2)[C@H]1O5 :: 9.47
CN(C(=O)/C=C/c1ccoc1)[C@H]1CC[C@@]2(O)[C@H]3Cc4ccccc4[C@@]2(CCN3CC2CC2)C1 :: 9.52
CN(C(=O)/C=C/c1ccoc1)[C@H]1CC[C@@]2(O)[C@H]3CC4=C(C[C@H](O)CC4)[C@@]2(CCN3CC2CC2)C1 :: 8.96
CN(C(=O)/C=C/c1ccoc1)[C@H]1CC[C@@]2(O)[C@H]3CC4=C(CC(=O)CC4)[C@@]2(CCN3CC2CC2)C1 :: 8.65
CN(C(=O)/C=C/c1ccoc1)[C@@H]1CC[C@@]2(O)[C@H]3CC4=C(C[C@@H](O)CC4)[C@@]2(CCN3CC2CC2)C1 :: 9.15
CN(C(=O)/C=C/c1ccoc1)[C@H]1CC[C@H]2[C@H]3CC4=C(CCCC4)[C@@]2(CCN3CC2CC2)C1 :: 8.64
CN(C(=O)/C=C/c1ccoc1)[C@H]1CC[C@@]2(O)[C@H]3Cc4ccc(O)cc4[C@@]2(CCN3CC2CC2)C1 :: 9.79
CN(C(=O)/C=C/c1ccoc1)[C@H]1CC[C@@]2(O)[C@H]3CC4=C(CCCC4)[C@@]2(CCN3CC2CC2)C1 :: 8.69

meta.source: ChEMBL document CHEMBL2202959
